Reported cleaved RNA product abundance is given for each of the following sequences.
tested on: Bacillus subtilis; test: cleaved RNA product abundance (RNA/gDNA barcode ratio) relative to median wild-type variant (ratio to wild type); higher = more accumulation of the downstream cleavage product; settings: experiment (reporter, strain, medium): exp 8a: truncated aprE reporter, strain BJT201 with 2% xylose (RNase J1 expressed); cleavage site: glnRA (positions -5 to +31 mutated)
QUANTITY_MEASURED: cleaved RNA product abundance

[[record]]
macromolecule_sequence = "CGACATGTCCCGCTTCTTTCATTAATCCTTTAGCAACTATTTTGCTATATACATTTACCTTTTAAGAGGAGGAAT"
quantity_measured = "cleaved RNA product abundance"
reported_value = 0.828

[[record]]
macromolecule_sequence = "CGACATGTCCCGCTTCTTTCATTAATCTTTTAGCAACTGTTTTGCTATATACATTTACCTTTTAAGAGGAGGAAT"
quantity_measured = "cleaved RNA product abundance"
reported_value = 1.14

[[record]]
macromolecule_sequence = "CGACATGTCCCGCTTCTTTCATTAATCCGTTAGCAACTGTTTCACTATATACATTTACCTTTTAAGAGGAGGAAT"
quantity_measured = "cleaved RNA product abundance"
reported_value = 0.694

[[record]]
macromolecule_sequence = "CGACATGTCCCGCTTCTTTCATTAATCCGTTAACAACTGTTTTGCTATATACATTTCCCTTTTAAGAGGAGGAAT"
quantity_measured = "cleaved RNA product abundance"
reported_value = 0.155

[[record]]
macromolecule_sequence = "CGACATGTCCCGCTTCTTTCATTAATCCGTTAGCAACTGTTTTGCTATATACATATATCTTTTAAGAGGAGGAAT"
quantity_measured = "cleaved RNA product abundance"
reported_value = 1.06

[[record]]
macromolecule_sequence = "CGACATGTCCCGCTTCTTTCATTAATCCGTTAGCAAGTGTTTTGTTATATACATTTACCTTTTAAGAGGAGGAAT"
quantity_measured = "cleaved RNA product abundance"
reported_value = 0.21

[[record]]
macromolecule_sequence = "CGACATGTCCCGCTTCTTTCATTAATCCGTTAGCAACTGTATTGCTATATTCATTTACCTTTTAAGAGGAGGAAT"
quantity_measured = "cleaved RNA product abundance"
reported_value = 0.16

[[record]]
macromolecule_sequence = "CGACATGTCCCGCTTCTTTCATTAATTCGTTAGCAACTGTTTTGCTAAATACATTTACCTTTTAAGAGGAGGAAT"
quantity_measured = "cleaved RNA product abundance"
reported_value = 0.362

